- Test system: MRSA and MSSA
- protocol: Antibacterial activity of gallic acid, various gallates and multivalent phenol derivatives alone (agar plate dilution method, MIC)
- Type: cell-based, Staphylococcus aureus
- experimental.context: Staphylococcus aureus, MRSA #22; compound alone; read-out: MIC
observable: MIC

Record excerpt, results attached:
CC(C)CCOC(=O)c1ccc(O)cc1 [Isoamyl 4-hydroxybenzoate] ... 62.5 µg/mL
CC(C)CCOC(=O)c1cc(O)c(O)c(O)c1 [isoAmyl gallate, Isoamyl gallate] ... 125 µg/mL
CCCCCCCCCCCOC(=O)c1cc(O)c(O)c(O)c1 [Undecyl gallate, n-undecyl gallate] ... 31.3 µg/mL

Each compound below has a reported value. Please supply its MIC.
1. CCCC(=O)c1cc(O)c(O)cc1O [2′,4′,5′-trihydroxybutyrophenone]
2. CC(=O)c1ccc(O)c(O)c1O [2′,3′,4′-trihydroxyacetophenone]
3. CCCCCOC(=O)c1ccc(O)cc1 [n-Amyl 4-hydroxybenzoate]
4. CC(C)COC(=O)c1cc(O)c(O)c(O)c1 [isoButyl gallate, isobutyl gallate]
5. CCCCCCCCCCCCOC(=O)c1cc(O)c(O)c(O)c1 [Lauryl gallate, n-lauryl gallate]

["125 µg/mL", "62.5 µg/mL", "62.5 µg/mL", "125 µg/mL", "62.5 µg/mL"]

MIC in this record for CCCCCCCCCCCCCCCCOC(=O)c1cc(O)c(O)c(O)c1 [Cetyl gallate] : > 250 µg/mL

###

- Test system: MRSA and MSSA
- protocol: Antibacterial activity of gallic acid, various gallates and multivalent phenol derivatives alone (agar plate dilution method, MIC)
- Assay type: cell-based, Staphylococcus aureus
- experimental.context: Staphylococcus aureus, MSSA #1020; read-out: MIC alone
- Description: According to the agar plate dilution method defined by Japan Society of Chemotherapy, MIC (Minimum inhibitory concentration) was determined. CAMHA was prepared by adding 50 mg/l of Ca-ion, 25 mg/l of Mg-ion, and 2% of NaCl to Mueller-Hinton II Agar (MHA), and it was used as a medium for use in the measurement of sensitivity. […] MIC for gallic acid, various gallates and multivalent phenol derivatives alone with MRSA and MSSA were determined as described in experiment 2.
Assignment: determine reported log10(MIC) for the given molecules.
In plain terms, each number is the log10 of measured MIC in mg/L.

Record excerpt, results attached:
CCCCCCOC(=O)c1cc(O)c(O)c(O)c1 [Hexyl gallate, n-hexyl gallate] ... 1.80
CCCCCCCCCOC(=O)c1cc(O)c(O)c(O)c1 [Nonyl gallate, n-nonyl gallate] ... 1.20
CCCOC(=O)c1cc(O)c(O)c(O)c1 [Propyl gallate, n-propyl gallate] ... 2.10

Each molecule below has a reported value. Please supply its log10(MIC).
1. CCCCCCCOC(=O)c1cc(O)c(O)c(O)c1 [Heptyl gallate, n-heptyl gallate]
2. CCOC(=O)c1cc(O)c(O)c(O)c1 [Ethyl gallate, ethyl gallate]
3. CCCCCCCCCCOC(=O)c1cc(O)c(O)c(O)c1 [Decyl gallate, n-decyl gallate]
4. CCCCOC(=O)c1cc(O)c(O)c(O)c1 [Butyl gallate, n-butyl gallate]
5. CCCCCOC(=O)c1cc(O)c(O)c(O)c1 [Pentyl gallate, n-pentyl gallate]
6. O=C(O)c1cc(O)c(O)c(O)c1 [Gallic acid, gallic acid, reference compound]
7. COC(=O)c1cc(O)c(O)c(O)c1 [Methyl gallate, methyl gallate]

[1.50, 2.10, 1.20, 2.10, 1.80, 1.80, 2.40]

log10(MIC) in this record for CCCCCCCCOC(=O)c1cc(O)c(O)c(O)c1 [Octyl gallate, n-octyl gallate] : 1.50
